Measured values drawn from ChEMBL document CHEMBL3098047 for this set.

assay: Kinetic solubility of the compound in PBS buffer at pH 7.4 after 24 hrs by turbidimetric method; assay type: physicochemical; conditions: read-out: Kinetic_solubility
REPORTED_ENDPOINT: solubility kinetic at 24 h (µg/mL)

Use the examples below as a reference point.
# COMPOUND, solubility kinetic at 24 h / µg/mL
measured = [
    ("NC(=O)c1c(F)ccc(OC(COC(=O)CCC(=O)O)c2nc(-c3ccc(C(F)(F)F)cc3)c(Br)o2)c1F (racemic)", 200),
    ("NC(=O)c1c(F)ccc(OC(CC(O)CO)c2nc(-c3ccc(C(F)(F)F)cc3)c(Br)o2)c1F (racemic)", 100),
    ("NC(=O)c1c(F)ccc(OC(COC(=O)NCCN2CCCC2)c2nc(-c3ccc(C(F)(F)F)cc3)c(Br)o2)c1F (racemic)", 400),
]

[a] NC(=O)c1c(F)ccc(OC(COC(=O)NCC(=O)O)c2nc(-c3ccc(C(F)(F)F)cc3)c(Br)o2)c1F (racemic)
[b] NC(=O)c1c(F)ccc(OC(COC(=O)N2CCNCC2)c2nc(-c3ccc(C(F)(F)F)cc3)c(Br)o2)c1F (racemic)
Please choose the item with the lower solubility kinetic at 24 h value from this pair: a and b When you have decided, please share the label of that item. b

---

test: Half life in mouse microsomes at 10 uM by LC-MS/MS analysis; type: ADME, Microsome
As shown below, each of these molecules has a reported half-life at 10 µM value.
Answer format: numeric, h implied, no suffix.

# COMPOUND_STRUCTURE, half-life at 10 µM (h)
records = [
    ("CCCc1oc(COc2ccc(F)c(C(N)=O)c2F)nc1-c1ccc(Cl)cc1", 1.14),
]

Next up:
# input molecule: `CCc1oc(COc2ccc(F)c(C(N)=O)c2F)nc1-c1ccc(OC)cc1` ; wanted: its half-life at 10 µM 1.19

---

tested on: Staphylococcus aureus; assay: Antibacterial activity against Staphylococcus aureus harboring FtsZ G196A mutant by broth microdilution method; format: functional
REPORTED_ENDPOINT: MIC

For orientation, consider the following solved cases.
# COMPOUND_STRUCTURE, ASSAY_TARGET, MIC
data = [
    ("NC(=O)c1c(F)ccc(OCc2nc(-c3ccc(OC(F)(F)F)cc3)c(C(F)(F)F)o2)c1F", "Staphylococcus aureus", "> 64 mg/L"),
    ("NC(=O)c1c(F)ccc(O[C@@H](CO)c2nc(-c3ccc(C(F)(F)F)cc3)c(Br)o2)c1F", "Staphylococcus aureus", "64 mg/L"),
    ("NC(=O)c1c(F)ccc(OCc2nc(-c3ccc(Cl)cc3)c(N)o2)c1F", "Staphylococcus aureus", "> 64 mg/L"),
    ("COc1ccc(-c2nc(COc3ccc(F)c(C(N)=O)c3F)oc2C2CC2)cc1", "Staphylococcus aureus", "> 64 mg/L"),
    ("CCc1oc(COc2ccc(F)c(C(N)=O)c2F)nc1-c1ccc(OC)cc1", "Staphylococcus aureus", "> 64 mg/L"),
]

I'm curious: which MIC was measured for `NC(=O)c1c(F)ccc(OCc2nc3cc(Cl)cnc3s2)c1F` tested on Staphylococcus aureus? > 64 mg/L

Provide value of MIC for this record tested with Staphylococcus aureus: `NC(=O)c1c(F)ccc(OCc2nc(-c3ccc(Cl)cc3)c([N+](=O)[O-])o2)c1F` > 64 mg/L

For the record `COc1ccc(-c2coc(COc3ccc(F)c(C(N)=O)c3F)n2)cc1` , what value of MIC is listed for Staphylococcus aureus? > 64 mg/L

Param readout = MIC; param system = Staphylococcus aureus; param query = `COc1ccc(-c2nc(COc3ccc(F)c(C(N)=O)c3F)oc2-c2ccccc2)cc1` ; response: value > 64 mg/L

What reported MIC corresponds to `C=CCc1oc(COc2ccc(F)c(C(N)=O)c2F)nc1-c1ccc(Cl)cc1` on Staphylococcus aureus? > 64 mg/L

Request: MIC, test system Staphylococcus aureus, entry `Cc1oc(COc2ccc(F)c(C(N)=O)c2F)nc1-c1ccc(Cl)cc1` > 64 mg/L

Please tell me: MIC of `NC(=O)c1c(F)ccc(OCc2nc(-c3ccc(OC(F)(F)F)cc3)c(I)o2)c1F` , system Staphylococcus aureus? > 64 mg/L

Write down the reported MIC of `NC(=O)c1c(F)ccc(OCc2nc(-c3ccccc3)co2)c1F` , test system: Staphylococcus aureus. > 64 mg/L

For the record `NC(=O)c1c(F)ccc(OCc2nc(-c3ccc(Cl)cc3)c(CO)o2)c1F` , what value of MIC is listed for Staphylococcus aureus? > 64 mg/L

Record `NC(=O)c1c(F)ccc(OCc2nc(-c3ccc(OC(F)(F)F)cc3)c(Br)o2)c1F` : what is its MIC with Staphylococcus aureus? 2 mg/L

I'm curious: which MIC was measured for `NC(=O)c1c(F)ccc(O[C@H](CO)c2nc(-c3ccc(C(F)(F)F)cc3)c(Br)o2)c1F` tested on Staphylococcus aureus? 4 mg/L

Lab request: please report MIC under test system Staphylococcus aureus for `NC(=O)c1c(F)ccc(OCc2nc(-c3ccc(C(F)(F)F)cc3)c(Br)o2)c1F` 4 mg/L

Could you share what MIC was measured for `CCOc1oc(COc2ccc(F)c(C(N)=O)c2F)nc1-c1ccc(Cl)cc1` , tested on Staphylococcus aureus? > 64 mg/L

Observed MIC on Staphylococcus aureus for `NC(=O)c1c(F)ccc(OCc2nc(-c3ccc(O)cc3)co2)c1F` , please. > 64 mg/L

Checklist item: MIC tested on Staphylococcus aureus, entry `NC(=O)c1c(F)ccc(OCc2nc(-c3ccc(OC(F)(F)F)cc3)c(Cl)o2)c1F` , value? 8 mg/L

---

test system: Staphylococcus aureus; experiment: Antibacterial activity against Staphylococcus aureus harboring FtsZ G196A mutant by broth microdilution method; assay type: functional
REPORTED_ENDPOINT: MIC (µg/mL)
Write down the numeric answer in µg/mL and omit the unit.

# COMPOUND, MIC / µg/mL
records = [
    ("NC(=O)c1c(F)ccc(OC(CO)c2nc(-c3ccc(C(F)(F)F)cc3)c(Br)o2)c1F (racemic)", 8),
]

Next up:
If you can, please state the reported MIC value of `NC(=O)c1c(F)ccc(OCc2nc(-c3ccc(Cl)cc3)c(Br)o2)c1F` . 2

---

target: Cell division protein FtsZ (Staphylococcus aureus); experiment: Inhibition of Staphylococcus aureus ATCC 29213 FtsZ-mediated cell division phenotype
REPORTED_ENDPOINT: MIC (µg/mL)

# COMPOUND, REPORTED_ENDPOINT, QUANTITATIVE_RESULT
rows = [
    ("NC(=O)c1c(F)ccc(OCc2nc(-c3ccc(OC(F)(F)F)cc3)c(Cl)o2)c1F", "MIC", 0.12),
    ("CCC(Oc1ccc(F)c(C(N)=O)c1F)c1nc(-c2ccc(Cl)cc2)c(Br)o1 (racemic)", "MIC", 1),
    ("NC(=O)c1c(F)ccc(OCc2nc(-c3ccccc3)co2)c1F", "MIC", 16),
    ("NC(=O)c1c(F)ccc(O[C@@H](CO)c2nc(-c3ccc(C(F)(F)F)cc3)c(Br)o2)c1F", "MIC", 16),
    ("N#Cc1oc(COc2ccc(F)c(C(N)=O)c2F)nc1-c1ccc(C(F)(F)F)cc1", "MIC", 4),
    ("COc1ccc(-c2nc(COc3ccc(F)c(C(N)=O)c3F)oc2-c2cncs2)cc1", "MIC", 2),
    ("NC(=O)c1c(F)ccc(O[C@H](CO)c2nc(-c3ccc(C(F)(F)F)cc3)c(Br)o2)c1F", "MIC", 0.25),
    ("COc1ccc(-c2nc(COc3ccc(F)c(C(N)=O)c3F)oc2C2CC2)cc1", "MIC", 0.12),
    ("CCCc1oc(COc2ccc(F)c(C(N)=O)c2F)nc1-c1ccc(Cl)cc1", "MIC", 0.015),
    ("NC(=O)c1c(F)ccc(OC(CC(O)CO)c2nc(-c3ccc(C(F)(F)F)cc3)c(Br)o2)c1F (racemic)", "MIC", 0.5),
]

[I] NC(=O)c1c(F)ccc(OC(CCO)c2nc(-c3ccc(C(F)(F)F)cc3)c(Br)o2)c1F (racemic)
[II] CC(Oc1ccc(F)c(C(N)=O)c1F)c1nc(-c2ccc(C(F)(F)F)cc2)c(Br)o1 (racemic)
Please compare: I and II . Report which one has the smaller MIC value. State your choice using its label. II

---

test: Volume of distribution in Balb/c mouse at 3 mg/kg, iv by LC-MS/MS analysis; format: ADME, organism-based; set-up: dose 3 mg/kg, route intravenous; conditions: in vivo
REPORTED_ENDPOINT: Vd (L/kg)

Look over these answered cases.
# COMPOUND, REPORTED_ENDPOINT, QUANTITATIVE_RESULT
records = [
    ("NC(=O)c1c(F)ccc(OC(CO)c2nc(-c3ccc(C(F)(F)F)cc3)c(Br)o2)c1F (racemic)", "Vd", 1.3),
    ("CC(Oc1ccc(F)c(C(N)=O)c1F)c1nc(-c2ccc(OC(F)(F)F)cc2)c(Br)o1 (racemic)", "Vd", 2.7),
    ("CCCc1oc(COc2ccc(F)c(C(N)=O)c2F)nc1-c1ccc(Cl)cc1", "Vd", 5),
    ("CCc1oc(COc2ccc(F)c(C(N)=O)c2F)nc1-c1ccc(OC)cc1", "Vd", 4.3),
]

[I] CC(Oc1ccc(F)c(C(N)=O)c1F)c1nc(-c2ccc(OC(F)(F)F)cc2)c(Cl)o1 (racemic)
[II] CC(Oc1ccc(F)c(C(N)=O)c1F)c1nc(-c2ccc(C(F)(F)F)cc2)c(Br)o1 (racemic)
Hi there! Just curious which has the higher Vd between I and II . Output the label that corresponds to your choice. I
(I: 3.5 L/kg, II: 2 L/kg)
